The reader will find reported pIC50 values listed item by item below.
- experimental.target: KRAS G13C (Homo sapiens, UniProt P01116+P62937, G13C)
- Sequence (P01116 1-169 isoform P01116-2 G13C): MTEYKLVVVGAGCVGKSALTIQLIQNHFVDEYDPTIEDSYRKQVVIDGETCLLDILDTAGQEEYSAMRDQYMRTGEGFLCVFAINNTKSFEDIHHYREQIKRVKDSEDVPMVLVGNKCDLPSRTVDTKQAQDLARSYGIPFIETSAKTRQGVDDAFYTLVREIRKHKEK
- Sequence (P62937 whole entry): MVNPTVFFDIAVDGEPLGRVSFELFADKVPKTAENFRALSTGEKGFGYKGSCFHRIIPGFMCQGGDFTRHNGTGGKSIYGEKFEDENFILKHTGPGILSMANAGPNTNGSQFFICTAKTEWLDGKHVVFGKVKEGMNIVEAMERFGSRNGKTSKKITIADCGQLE
- method: Disruption of BRAF RBD interaction with Ras (FRET / MOA assay, with Cyclophilin A)
- Format: biochemical
- condition.context: read-out: KRAS G13C FRET data, IC50
pIC50: −log10 of the molar value.

>  <compound>
CCn1c(-c2cccnc2[C@H](C)OC)c2c3cc(ccc31)-c1cc(O)cc(c1)C[C@H](NC(=O)[C@H](C(C)C)N(C)C(=O)C1NCCC13CC3)C(=O)N1CCC[C@H](N1)C(=O)OCC(C)(C)C2 (stereo partly drawn)

>  <pIC50>
7.00 to 8.00

$$$$
>  <compound>
CCn1c(-c2cccnc2[C@H](C)OC)c2c3cc(ccc31)-c1csc(n1)C[C@H](NC(=O)[C@H](C(C)C)N(C)C(=O)N1CC(N3CCCC3)C1)C(=O)N1CCC[C@H](N1)C(=O)OCC(C)(C)C2

>  <pIC50>
6.00 to 7.00

$$$$
>  <compound>
CCn1c(-c2cccnc2[C@H](C)OC)c2c3cc(ccc31)-c1csc(n1)C[C@H](NC(=O)[C@H](C(C)C)N(C)C(=O)N1CCN(C(=O)CO)CC1)C(=O)N1CCC[C@H](N1)C(=O)OCC(C)(C)C2 (atropisomer, axis not shown)

>  <pIC50>
6.00 to 7.00

$$$$
>  <compound>
CCC(=O)N1CC[C@H](C(=O)N(C)[C@H](C(=O)N[C@H]2Cc3cc(O)cc(c3)-c3ccc4c(c3)c(c(-c3ccccc3CCOC)n4CC)CC(C)(C)COC(=O)[C@@H]3CCCN(N3)C2=O)C(C)C)C1

>  <pIC50>
5.00 to 6.00

$$$$
>  <compound>
CCn1c(-c2cccnc2[C@H](C)OC)c2c3cc(ccc31)-c1csc(n1)C[C@H](NC(=O)[C@H](C(C)C)N(C)C(=O)N(C)C1CCC1)C(=O)N1CCC[C@H](N1)C(=O)OCC(C)(C)C2 (atropisomer, axis not shown)

>  <pIC50>
7.00 to 8.00

$$$$
>  <compound>
CCn1c(-c2cc(N3CCN(C)CC3)cnc2[C@H](C)OC)c2c3cc(ccc31)-c1csc(n1)C[C@H](NC(=O)[C@H](C1CCCC1)N(C)C(=O)N(C)C)C(=O)N1CCC[C@H](N1)C(=O)OCC(C)(C)C2 (atropisomer, axis not shown)

>  <pIC50>
7.00 to 8.00

$$$$

====

- experimental.target: KRAS WT (Homo sapiens, UniProt P01116+P62937)
- Sequence (P01116 1-169 isoform P01116-2 limits assumed, one chain of several): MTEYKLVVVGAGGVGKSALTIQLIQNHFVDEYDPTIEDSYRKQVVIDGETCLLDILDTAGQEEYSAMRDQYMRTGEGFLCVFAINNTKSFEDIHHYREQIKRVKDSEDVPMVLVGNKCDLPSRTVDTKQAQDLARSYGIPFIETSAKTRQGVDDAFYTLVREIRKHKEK
- method: Disruption of BRAF RBD interaction with Ras (FRET / MOA assay, with Cyclophilin A)
- Type: biochemical
- condition.context: KRAS WT; read-out: KRAS WT FRET data IC50

>  <molecule>
CCn1c(-c2cnccc2COC)c2c3cc(ccc31)-c1cc(O)cc(c1)C[C@H](NC(=O)[C@H](C(C)C)N(C)C(=O)C1C[C@@H]1C)C(=O)N1CCC[C@H](N1)C(=O)OCC(C)(C)C2 (stereo partly drawn) [Example A19]

>  <IC50>
100 to 1000 nM

$$$$
>  <molecule>
C=CC(=O)N1CC[C@H](C(=O)N(C)[C@H](C(=O)N[C@H]2Cc3cc(O)cc(c3)-c3ccc4c(c3)c(c(-c3cnccc3C)n4CC)CC(C)(C)COC(=O)[C@@H]3CCCN(N3)C2=O)C(C)C)C1 [Example A077]

>  <IC50>
100 to 1000 nM

$$$$
>  <molecule>
C=CC(=O)N(C)CCN(C)C(=O)N(C)[C@H](C(=O)N[C@H]1Cc2nc(cs2)-c2ccc3c(c2)c(c(-c2cccnc2[C@H](C)OCC)n3CC)CC(C)(C)COC(=O)[C@@H]2CCCN(N2)C1=O)C(C)C [Example A437]

>  <IC50>
100 to 1000 nM

$$$$
